The following compounds are listed with their measured EC50 values.
Tested on: Human immunodeficiency virus 1
Assay: Antiviral activity against HIV1 in human PBMC
Type: functional, organism-based
Numeric answer only, unit µM assumed.

structureAsSmiles	EC50 (µM)
O=c1ccn([C@@H]2S[C@H](CO)[C@H]2CO)c(=O)[nH]1	6.9

# ---- query compound ----
Q: I would be grateful if you could share the reported EC50 for Nc1ccn([C@@H]2S[C@H](CO)[C@H]2CO)c(=O)n1 .
Result: 1.3

----------
The following compounds are listed with their measured IC50 values.
Test system: CCRF-CEM
Assay: Cytotoxicity against human CEM cells
Format: functional, cell-based

structureAsSmiles	IC50
OC[C@H]1[C@H](n2cnc3c(O)ncnc32)S[C@@H]1CO	> 100 µM
O=c1ccn([C@H]2S[C@@H](CO)[C@@H]2CO)c(=O)[nH]1	> 100 µM
Cc1cn([C@@H]2S[C@H](CO)[C@H]2CO)c(=O)[nH]c1=O	> 100 µM

Q: I would be grateful if you could share the reported IC50 for Nc1ncnc2c1ncn2[C@@H]1S[C@H](CO)[C@H]1CO .
Result: > 100 µM

Q: And for Nc1ccn([C@@H]2S[C@H](CO)[C@H]2CO)c(=O)n1 ?
Result: 4.3 µM

Q: And for Nc1nc(=O)n([C@@H]2S[C@H](CO)[C@H]2CO)cc1Cl ?
Result: > 100 µM

Q: And for Cc1cn([C@H]2S[C@@H](CO)[C@@H]2CO)c(=O)[nH]c1=O ?
Result: > 100 µM

Q: And for Nc1nc(=O)n([C@@H]2S[C@H](CO)[C@H]2CO)cc1Br ?
Result: 1.8 µM

Q: And for Nc1ncnc2c1ncn2[C@H]1S[C@@H](CO)[C@@H]1CO ?
Result: > 100 µM

Q: And for Nc1ccn([C@H]2S[C@@H](CO)[C@@H]2CO)c(=O)n1 ?
Result: 45.6 µM

Q: And for O=c1ccn([C@@H]2S[C@H](CO)[C@H]2CO)c(=O)[nH]1 ?
Result: 4.9 µM

Q: And for Nc1nc(=O)n([C@@H]2S[C@H](CO)[C@H]2CO)cc1F ?
Result: 19 µM

Q: And for OC[C@H]1[C@H](CO)S[C@@H]1n1cnc2c(O)ncnc21 ?
Result: > 100 µM

Q: And for Nc1nc(O)c2ncn([C@H]3S[C@@H](CO)[C@@H]3CO)c2n1 ?
Result: > 100 µM

Q: And for Nc1nc(O)c2ncn([C@@H]3S[C@H](CO)[C@H]3CO)c2n1 ?
Result: > 100 µM
